The binders listed here are annotated with their glycan array binding signal (z-score).
target: Gal3S6S(b1-4)GlcNAc6S; assay: glycan array binding signal (z-score within array); higher = stronger binding; conditions: glycan notation: IUPAC condensed, linker removed
Shown is part of a subset that was picked to be rich in the strongest signals.
Give your answer as a number; write no unit.

# binder, numeric result
rows = [
    ("R410P1E11 (Tachypleus tridentatus), TAL2_TACTR (protein) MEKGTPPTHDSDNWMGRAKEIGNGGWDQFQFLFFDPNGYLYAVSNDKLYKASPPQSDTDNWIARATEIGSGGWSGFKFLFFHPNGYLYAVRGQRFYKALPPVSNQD", 0.451),
]

Given the entry HMGB1 (Homo sapiens), P09429 (protein) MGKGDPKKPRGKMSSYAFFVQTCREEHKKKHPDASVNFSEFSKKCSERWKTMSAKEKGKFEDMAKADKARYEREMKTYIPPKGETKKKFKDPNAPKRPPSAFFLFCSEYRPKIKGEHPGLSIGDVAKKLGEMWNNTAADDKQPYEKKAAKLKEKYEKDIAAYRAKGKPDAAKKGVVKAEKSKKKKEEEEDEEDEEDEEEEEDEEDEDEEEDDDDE , report its measured glycan array binding signal (z-score). 4.75

Given the entry S100A12 (Homo sapiens), P80511 (protein) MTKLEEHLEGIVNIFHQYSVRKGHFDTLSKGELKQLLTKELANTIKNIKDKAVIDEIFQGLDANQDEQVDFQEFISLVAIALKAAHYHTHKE , report its measured glycan array binding signal (z-score). 2.83

Given the entry CFEM-PPl (Pichia pastoris), F2QPV1 (protein) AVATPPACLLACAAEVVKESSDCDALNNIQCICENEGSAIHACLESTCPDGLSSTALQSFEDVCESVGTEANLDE , report its measured glycan array binding signal (z-score). -0.019

Source of measurements: the supplement of paper PMC8728848
